# subject of test: Torsin-1A (Homo sapiens)
# assay comment: torsin A mutant lysate binding on microarrays – cell lysate, small-molecule microarray, COS7 lysate, 635/667 nm fluorescence, primary screen (AID 1150);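 note: score pools 667 nm emission and signal to noise measuring lysate protein binding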
# condition summary: COS7 hTOR1A mutant lysate, 635 nm fluorescence, higher = more signal
Documented composite z-score across a set of compounds
assay endpoint: composite z-score

- CCOC(=O)C[C@H]1[C@H](OC(=O)c2cc3ccccc3oc2=O)[C@@H](NC(=O)CC(C)C)c2cc(OCCCO)ccc2N1C(=O)c1ccccc1: 0.205
- C=C(C)[C@@H]1CC=C(C(O)C2C=CC3C(=O)NC(=O)C3N2Nc2ccc(Cl)cc2Cl)CC1 (stereo partly specified): 0.455
- COC(=O)[C@@]1(Cc2ccccc2)[C@H]2c3cc(C(=O)N4CCCC4)n(Cc4c(CO)[nH]cc(C)c4=O)c3C[C@H]2CN1C(=O)c1ccccc1: 0.491
- C=CCOC(=O)[C@H]1[C@@H]2C(=O)O[C@@H](c3ccccc3)[C@@H](c3ccccc3)N2[C@@H](c2ccc(OCCOC(=O)[C@@H]3C[C@@H]4C(=O)N5CCC[C@H]5C(=O)N4[C@@H]3c3cccc(OCCO)c3)cc2)[C@]12C(=O)Nc1ccc(I)cc12: 0.573
- COC(=O)c1c2oc(c1C(=O)OC)C(=O)N[C@@H](C(C)C)Cn1cc(nn1)C1(CCCCC1)NC(=O)N[C@H](CO)CC2: 0.48
- O=C(CS)NCCCCCNC(=O)[C@@H]1C[C@@H]2C(=O)NCC(=O)N2[C@@H]1c1cccc(OCCO)c1: -0.0657

Reference for the values: PubChem BioAssay
